Tested on: MDA-MB-435
Experiment: NCI tumour cell line growth inhibition, 48 h
Activity calls are given as the source filed them. Cut-off read from the data, not from the text of the source: active = GI50 up to about 1.1 µM and inactive = higher.
The reply should be one of these categories: active, inactive

Asked: What classification did COc1cc(C2SC(=N)Nc3c2c(C)nn3C(=O)c2ccc(Cl)cc2)cc(OC)c1OC (stereo not given) end up with in this test?
Given back: inactive

Asked: // outcome(item) with item = "Cc1ccc(N/C(Sc2ccccc2)=C(/C(Cl)=C(Cl)Cl)[N+](=O)[O-])c(C)c1"
Given back: inactive

Asked: I'd appreciate the recorded outcome for COc1cc(NS(C)(=O)=O)ccc1Nc1c2ccccc2nc2c1[nH]c1ccc(NC3OC(CO)C(O)C(O)C3O)cc12 (stereo not given) from this test.
Given back: active

Asked: Identify the outcome logged in this assay for the compound shown: "c1csc(-c2nccc3c2[nH]c2ccccc23)c1"
Given back: inactive

Asked: Answer briefly: the call reported for "O=C(O)C1(Cc2ccc3c(c2)CCC3)Cc2ccccc2C1" in this assay.
Given back: inactive

###

System: NCI/ADR-RES
Assay: NCI tumour cell line growth inhibition, 48 h
Calls of active or inactive are those of the source. Rule as the data show it: active = GI50 up to about 1.1 µM and inactive = higher.
Endpoint label: GI50

| Compound | Observed |
| --- | --- |
| O=c1c2cc(I)ccc2nc(S)n1Cc1ccccc1 | 18.5 µM (inactive) |

Asked: Returns the measured GI50 for the input compound. Input: CCCC(=O)OCC1OC(n2cc(F)c(=O)[nH]c2=O)CC1O (stereo not given)
Given back: 1.7 µM (inactive)

Asked: What value of GI50 has been reported for the following compound? "c1ccc(CSCCC(SCc2ccccc2)SCc2ccccc2)cc1"
Given back: > 10 µM (inactive)

###

Tested on: EKVX
Experiment: NCI tumour cell line growth inhibition, 48 h
Activity calls are given as the source filed them. Rule as the data show it: active = GI50 up to about 1.1 µM and inactive = higher.
I would appreciate it if you answered using one of these outcomes: T (active), F (inactive)

Asked: // return assay outcome for COc1cc(NS(C)(=O)=O)ccc1Nc1c2ccccc2nc2c1[nH]c1ccc(NC3OC(CO)C(O)C(O)C3O)cc12 (stereo not given)
Given back: T

###

Test system: NCI/ADR-RES
Assay: NCI tumour cell line growth inhibition, 48 h
Activity calls are given as the source filed them. Cut-off read from the data, not from the text of the source: active = GI50 up to about 1.1 µM and inactive = higher.
Entry note: the call must match one of active, inactive

| Compound | Label value |
| --- | --- |
| CC(=O)O[C@H]1CC[C@@]2(C)C(=CC[C@H]3[C@@H]4C[C@H](N5CCCC5)[C@H](OC(C)=O)[C@@]4(C)CC[C@@H]32)C1 | inactive |
| CN(C)CCCCCNc1c2ccccc2nc2cccc([N+](=O)[O-])c12 | active |
| COC(=O)c1ccc(/C=C2\Cc3ccccc3C2=O)cc1 | inactive |

Asked: Assay outcome for "O=c1c2c3c(sc2nc2n1NC=NN2)CCCC3" : what was it?
Given back: inactive

Asked: Recorded test call requested for "Oc1c2c(nc3cc4c(cc13)OCO4)-c1ccccc1CCC2"
Given back: inactive

Asked: I'd appreciate the recorded outcome for "COc1ccc2nc(NCN3C(=O)c4ccccc4C3=O)sc2c1" from this test.
Given back: inactive

Asked: Per the records of this test, what outcome belongs to "COc1ccc(-c2cc(-c3ccc(Nc4ccnc5cc(Cl)ccc45)cc3)nc(N)c2C#N)cc1" ?
Given back: inactive

Asked: Hi, do you know how Cc1ccc(-c2c3c(n(C4OC(CO)C(O)C(O)C4O)c(=S)c2C#N)CC(C)(C)CC3=O)cc1 (stereo not drawn) came out in this test?
Given back: inactive
